Quick reference for EC50 among some binders
Biological target: T1, Placenta Growth Factor (PlGF), human (human, UniProt P49763 21-149)
T1 chain: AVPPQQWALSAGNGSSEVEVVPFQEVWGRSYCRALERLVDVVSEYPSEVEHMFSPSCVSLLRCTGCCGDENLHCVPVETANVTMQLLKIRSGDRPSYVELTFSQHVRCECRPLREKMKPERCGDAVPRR
Experiment: ELISA
Output spec: scalar in nM, unitless text.

Known results for binders:
binder	measuredParameter	reportedMeasurement
HC 2/SLC 7 (antibody) chain 1: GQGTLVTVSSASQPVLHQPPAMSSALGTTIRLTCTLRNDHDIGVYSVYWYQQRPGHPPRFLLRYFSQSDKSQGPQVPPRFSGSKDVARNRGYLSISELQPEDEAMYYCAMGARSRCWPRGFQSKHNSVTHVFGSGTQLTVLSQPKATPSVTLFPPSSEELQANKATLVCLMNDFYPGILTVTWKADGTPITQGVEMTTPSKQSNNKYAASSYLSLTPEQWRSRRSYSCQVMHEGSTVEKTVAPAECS chain 2: MSWAPVLLMLFVYCTGCGPQPVLHQPPAMSSALGTTIRLTCTLRNDHDIGVYSVYWYQQRPGHPPRFLLRYFSQSDKSQGPQVPPRFSGSKDVARNRGYLSISVTHVFGSGTQLTVLSQPKATPQVQLVQ	EC50	0.148
HC 9/SLC 3 (antibody) chain 1: GQGTLVTVSSASTKGPSVFQPVLHQPPAMSSALGTTIRLTCTLRNDHDIGVYSVYWYQQRPGHPPRFLLRYFSQSDKSQGPQVPPRFSGSKDVARNRGYLSISELQPEDEAMYYCAMGARSRCWPRGFQSKHNSVTHVFGSGTQLTVLSQPKATPSVTLFPPSSEELQANKATLVCLMNDFYPGILTVTWKADGTPITQGVEMTTPSKQSNNKYAASSYLSLTPEQWRSRRSYSCQVMHEGSTVEKTVAPAECS chain 2: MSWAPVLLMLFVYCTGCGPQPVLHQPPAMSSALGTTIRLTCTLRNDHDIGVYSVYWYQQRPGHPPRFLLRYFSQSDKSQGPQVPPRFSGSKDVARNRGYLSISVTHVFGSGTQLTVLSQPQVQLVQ	EC50	0.136
HC 3/SLC 2 (antibody) chain 1: GQGTLVTVSSASTQPVLHQPPAMSSALGTTIRLTCTLRNDHDIGVYSVYWYQQRPGHPPRFLLRYFSQSDKSQGPQVPPRFSGSKDVARNRGYLSISELQPEDEAMYYCAMGARSRCWPRGFQSKHNSVTHVFGSGTQLTVLSQPKATPSVTLFPPSSEELQANKATLVCLMNDFYPGILTVTWKADGTPITQGVEMTTPSKQSNNKYAASSYLSLTPEQWRSRRSYSCQVMHEGSTVEKTVAPAECS chain 2: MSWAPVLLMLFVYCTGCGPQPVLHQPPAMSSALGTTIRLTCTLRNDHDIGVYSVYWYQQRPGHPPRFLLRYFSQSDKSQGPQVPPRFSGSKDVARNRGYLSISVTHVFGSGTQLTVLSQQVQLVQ	EC50	0.163
HC 5/SLC 4 (antibody) chain 1: GQGTLVTVSSASTKGQPVLHQPPAMSSALGTTIRLTCTLRNDHDIGVYSVYWYQQRPGHPPRFLLRYFSQSDKSQGPQVPPRFSGSKDVARNRGYLSISELQPEDEAMYYCAMGARSRCWPRGFQSKHNSVTHVFGSGTQLTVLSQPKATPSVTLFPPSSEELQANKATLVCLMNDFYPGILTVTWKADGTPITQGVEMTTPSKQSNNKYAASSYLSLTPEQWRSRRSYSCQVMHEGSTVEKTVAPAECS chain 2: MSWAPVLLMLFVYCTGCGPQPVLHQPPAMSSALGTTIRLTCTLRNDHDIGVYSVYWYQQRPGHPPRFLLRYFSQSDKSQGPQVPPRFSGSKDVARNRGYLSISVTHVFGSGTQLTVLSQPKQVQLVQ	EC50	0.207
HC 2/SLC 9 (antibody) chain 1: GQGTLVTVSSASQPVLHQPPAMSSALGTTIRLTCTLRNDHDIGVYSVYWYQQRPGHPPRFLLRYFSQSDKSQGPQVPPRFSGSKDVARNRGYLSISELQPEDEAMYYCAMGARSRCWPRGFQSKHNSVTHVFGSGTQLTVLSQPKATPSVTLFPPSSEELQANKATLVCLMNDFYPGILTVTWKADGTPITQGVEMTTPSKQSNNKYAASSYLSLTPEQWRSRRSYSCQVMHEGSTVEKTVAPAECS chain 2: MSWAPVLLMLFVYCTGCGPQPVLHQPPAMSSALGTTIRLTCTLRNDHDIGVYSVYWYQQRPGHPPRFLLRYFSQSDKSQGPQVPPRFSGSKDVARNRGYLSISVTHVFGSGTQLTVLSQPKATPSVQVQLVQ	EC50	0.195

Using the record for HC 5/SLC 5 (antibody) chain 1: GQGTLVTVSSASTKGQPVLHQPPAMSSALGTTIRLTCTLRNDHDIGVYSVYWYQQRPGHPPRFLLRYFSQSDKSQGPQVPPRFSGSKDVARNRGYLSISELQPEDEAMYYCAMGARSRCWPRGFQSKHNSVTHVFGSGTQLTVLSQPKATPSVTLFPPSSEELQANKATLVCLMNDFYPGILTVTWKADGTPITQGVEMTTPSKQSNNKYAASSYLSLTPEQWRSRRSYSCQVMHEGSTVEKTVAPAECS chain 2: MSWAPVLLMLFVYCTGCGPQPVLHQPPAMSSALGTTIRLTCTLRNDHDIGVYSVYWYQQRPGHPPRFLLRYFSQSDKSQGPQVPPRFSGSKDVARNRGYLSISVTHVFGSGTQLTVLSQPKAQVQLVQ , report its EC50.
0.256

Quick one: EC50 of HC 10/SLC 8 (antibody) chain 1: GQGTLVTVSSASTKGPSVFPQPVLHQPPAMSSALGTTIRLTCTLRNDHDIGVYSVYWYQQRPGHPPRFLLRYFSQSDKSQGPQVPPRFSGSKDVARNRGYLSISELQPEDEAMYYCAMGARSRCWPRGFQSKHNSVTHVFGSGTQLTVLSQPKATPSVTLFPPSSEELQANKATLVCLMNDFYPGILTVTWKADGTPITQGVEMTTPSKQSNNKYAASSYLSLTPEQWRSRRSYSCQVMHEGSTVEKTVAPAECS chain 2: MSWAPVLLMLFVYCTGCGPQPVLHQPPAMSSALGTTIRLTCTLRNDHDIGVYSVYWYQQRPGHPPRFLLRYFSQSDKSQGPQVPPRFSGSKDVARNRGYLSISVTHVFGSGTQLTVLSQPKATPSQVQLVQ ?
0.046
